- Tested on: RPMI-8226 leukemia
- assay remarks: NCI tumour cell line growth inhibition, 48 h; in the data active means GI50 below about 0.43 µM; inactive means the rest
Possible outcomes: active, inactive

[
  {
    "compound": "CC1=CC(C)=NN=C(N)N1S(=O)(=O)c1cc(C)c(Cl)cc1SCc1ccccc1",
    "label class": "inactive"
  },
  {
    "compound": "O=C1C(Cl)=C(Nc2ccc(Nc3ccccc3)c(NC3=C(Cl)C(=O)c4ccccc4C3=O)c2)C(=O)c2ccccc21",
    "label class": "inactive"
  },
  {
    "compound": "CN(CCCCCl)P(=O)(OCCS(=O)(=O)CC(NC(=O)CCC(N)C(=O)O)C(=O)NC(C(=O)O)c1ccccc1)OCC1OC(n2ccc(N)nc2=O)C(O)C1O (stereo not given)",
    "label class": "inactive"
  },
  {
    "compound": "Cc1ccc2oc(=O)cc(/C(=C3/C=CC=N3)c3ccc[nH]3)c2c1",
    "label class": "active"
  },
  {
    "compound": "CCCCN1CCCC[C@@H]1C(=O)N[C@H](C(=O)N(C)[C@H](C[C@@H](OC(C)=O)c1nc(C(=O)NC2CCC(C(=O)OC)CC2)cs1)C(C)C)C(C)C (stereo not given in full)",
    "label class": "inactive"
  }
]
